// provenance: PubChem BioAssay

ASSAY TEXT: compounds binding Alexa647 anti-His antibody – biochemical, small-molecule microarray, 635 nm fluorescence, artefact control for SMM control protein annotation, primary screen (AID 1128);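 also: score merges feature fluorescence with signal-to-noise for each printed compound spot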
TEST CONTEXT: higher = more signal
Outcome label depends on composite z-score relative to 1: at/above gives 1.0, below gives 0.0.

C=CCOC(=O)[C@@H]1[C@H]2C(=O)O[C@H](c3ccccc3)[C@H](c3ccccc3)N2[C@H](c2ccc(OCCOC(=O)[C@H]3C[C@H]4C(=O)N[C@@H](CCCC[N+](C)(C)C)C(=O)N4[C@H]3c3cccc(OCCO)c3)cc2)[C@@]12C(=O)Nc1ccc(I)cc12 : 1.0

Given the entry CCCCN1CC=CC23O[C@@H]4/C=C\CCCOC(=O)C4[C@H]2C(=O)N(C(C)CO)[C@@H]3C1=O (stereo partly specified) , answer whether its composite z-score meets or surpasses 1.
0.0

Given the entry "CC(C)N1C(=O)c2ccccc2[C@](C)(C(=O)NC2CC2)[C@@H]1c1ccc(CO)cc1" , answer whether its composite z-score meets or surpasses 1.
1.0

Given the entry "O=C(N1CCCCC1)[C@]1(CCS(=O)(=O)c2ccccc2)N=C(c2ccc(OCCCO)cc2)O[C@@H]1c1ccccc1" , answer whether its composite z-score meets or surpasses 1.
1.0

Given the entry "O=C1O[C@H](c2ccccc2)[C@H](c2ccccc2)N2[C@H]1[C@@H](C(=O)NC[C@H](O)c1ccccc1)[C@]1(C(=O)Nc3ccc(C#CC4(O)CCCCCC4)cc31)[C@H]2c1ccccc1OCCO" , answer whether its composite z-score meets or surpasses 1.
1.0

Given the entry "COC(=O)[C@@]1(Cc2ccc(OC)cc2)[C@H]2c3cc(C(=O)N4CCCC4)n(CCc4ccccn4)c3C[C@H]2CN1C(=O)c1ccccc1" , answer whether its composite z-score meets or surpasses 1.
0.0

Given the entry "CCCNC(=O)[C@@]1(C)c2ccccc2C(=O)N(Cc2ccc(OC(F)(F)F)cc2)[C@H]1c1ccc(CO)cc1" , answer whether its composite z-score meets or surpasses 1.
0.0

Given the entry "Oc1ccc2cc[n+](Cc3cccc(OC(F)(F)F)c3)cc2c1" , answer whether its composite z-score meets or surpasses 1.
0.0

Given the entry "Cc1ccc(S[C@]2(C(=O)NCC(F)(F)F)CC(=O)N(C3Cc4ccccc4C3)[C@@H]2c2ccc(CO)cc2I)cc1" , answer whether its composite z-score meets or surpasses 1.
0.0

Given the entry "CCCC[C@@H]1C[C@H]1[C@@H](NC(=O)c1ccco1)c1ccccc1" , answer whether its composite z-score meets or surpasses 1.
0.0

====

ASSAY TEXT: JC-1 mitochondrial signal, unstimulated HepG2 cells – cell-based, JC-1 fluorescence, 24 h, 100 nL compound, profiling panel (AID 1167); also: test concentration not given here
TEST CONTEXT: HepG2 mitochondrial potential, higher = more signal
OBSERVABLE: z-score
Lab note: record just the number, no unit beside it.

Please review the following examples before continuing.
CC1CC/C=C\[C@H]2OC34C=CCN(CCN5CCOCC5)C(=O)[C@H]3N(CCCCCO)C(=O)[C@@H]4C2C(=O)O1 (stereo partly drawn) : -0.461
O=C1OCCC/C=C\[C@H]2OC34C=CCN(Cn5nnc6ccccc65)C(=O)[C@H]3N(CCCO)C(=O)[C@@H]4C12 (stereo partly drawn) : -0.313
C=C(COC)C(=O)CC[C@@H](OC(=O)c1ccccc1-c1ccccc1C(=O)O)c1ccc(CO)o1 : -2.74

Please turn your attention to the following entry.
z-score for "CN(C)CCCN1C(=O)[C@@]2(c3ccc([N+](=O)[O-])cc3)CC(=O)N(C3CCCCC3)[C@@H]2c2ccc(CO)cc21" is 0.446
